Please respond with reported IC50 for every item in the list.
Molecular target: affinity purified β2GPI-dependent antiphospholipid antibody
Experiment: Competitive inhibition ELISA: recombinant β2GPI proteins compete for antibody binding to coated full length recombinant β2GPI
Set-up: species or system human
Conditions: Ab 6632; read-out: 50% (concentration to give 50% inhibition)

- molecule: "--345: recombinant β2GPI deletion mutant with domains 3, 4, 5 (protein) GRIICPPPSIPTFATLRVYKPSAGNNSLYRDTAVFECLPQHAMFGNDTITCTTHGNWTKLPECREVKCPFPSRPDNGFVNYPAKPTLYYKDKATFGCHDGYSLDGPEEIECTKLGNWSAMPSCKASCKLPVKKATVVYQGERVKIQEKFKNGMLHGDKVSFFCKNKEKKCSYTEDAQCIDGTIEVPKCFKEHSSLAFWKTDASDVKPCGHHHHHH"
  IC50: "> 50 µM"

I'm hoping you can list IC50 for every molecule here, please.
1. 12---: recombinant β2GPI deletion mutant with domains 1 and 2 (protein) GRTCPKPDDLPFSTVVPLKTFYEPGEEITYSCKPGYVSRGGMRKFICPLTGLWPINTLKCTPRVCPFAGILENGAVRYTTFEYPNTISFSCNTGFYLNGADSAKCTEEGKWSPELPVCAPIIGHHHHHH
2. -2345: recombinant β2GPI deletion mutant with domains 2-5 (protein) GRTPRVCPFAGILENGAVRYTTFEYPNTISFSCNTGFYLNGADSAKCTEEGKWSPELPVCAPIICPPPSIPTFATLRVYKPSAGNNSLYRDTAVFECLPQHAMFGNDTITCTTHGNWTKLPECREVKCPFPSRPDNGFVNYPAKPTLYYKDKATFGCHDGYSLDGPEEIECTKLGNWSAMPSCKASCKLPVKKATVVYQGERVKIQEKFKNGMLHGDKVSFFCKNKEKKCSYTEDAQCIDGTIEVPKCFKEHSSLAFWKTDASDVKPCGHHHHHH

Ans.
1: 3 µM; 2: > 57 µM
